- ASSAYED SYSTEM: EGFR (Homo sapiens, UniProt P00533)
- Sequence (P00533 25-1210): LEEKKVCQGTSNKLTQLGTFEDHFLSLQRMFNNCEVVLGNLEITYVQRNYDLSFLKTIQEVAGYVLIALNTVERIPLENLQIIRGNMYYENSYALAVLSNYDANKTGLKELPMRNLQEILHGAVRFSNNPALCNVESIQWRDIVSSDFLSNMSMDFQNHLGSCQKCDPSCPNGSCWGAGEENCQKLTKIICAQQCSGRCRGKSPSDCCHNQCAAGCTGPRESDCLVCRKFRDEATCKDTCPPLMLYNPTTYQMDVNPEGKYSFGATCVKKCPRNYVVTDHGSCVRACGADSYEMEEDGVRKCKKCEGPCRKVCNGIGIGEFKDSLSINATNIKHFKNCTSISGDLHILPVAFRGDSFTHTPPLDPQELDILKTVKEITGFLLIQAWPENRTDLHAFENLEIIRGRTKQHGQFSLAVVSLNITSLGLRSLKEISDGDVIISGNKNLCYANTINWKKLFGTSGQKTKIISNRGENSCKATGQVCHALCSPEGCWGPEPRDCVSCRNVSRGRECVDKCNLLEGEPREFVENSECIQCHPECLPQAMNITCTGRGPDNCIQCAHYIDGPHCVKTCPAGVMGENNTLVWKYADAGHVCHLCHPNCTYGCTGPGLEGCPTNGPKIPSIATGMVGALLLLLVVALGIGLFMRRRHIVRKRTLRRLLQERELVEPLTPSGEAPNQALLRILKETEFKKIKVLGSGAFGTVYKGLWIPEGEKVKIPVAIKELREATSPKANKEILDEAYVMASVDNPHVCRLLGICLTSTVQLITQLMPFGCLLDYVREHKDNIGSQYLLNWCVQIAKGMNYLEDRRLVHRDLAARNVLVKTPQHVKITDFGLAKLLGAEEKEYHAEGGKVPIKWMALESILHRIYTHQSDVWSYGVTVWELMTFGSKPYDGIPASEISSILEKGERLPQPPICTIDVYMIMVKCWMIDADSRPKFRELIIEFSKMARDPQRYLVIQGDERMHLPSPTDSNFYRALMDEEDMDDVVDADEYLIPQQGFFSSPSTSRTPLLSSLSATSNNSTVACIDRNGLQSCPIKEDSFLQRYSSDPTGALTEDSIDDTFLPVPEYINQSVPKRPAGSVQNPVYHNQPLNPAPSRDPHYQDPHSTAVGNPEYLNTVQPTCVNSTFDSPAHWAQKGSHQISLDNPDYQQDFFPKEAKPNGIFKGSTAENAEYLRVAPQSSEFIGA
REPORTED METRIC: IC50 (nM)
Express it in nM; write the number only.

Lookup: Query for EGFR (Homo sapiens, UniProt P00533): what IC50 does the record show for C=CC(=O)N[C@H]1C=C(C)c2c(-c3cnc4ccccc4c3)c3c(N)ncnc3n2C1 [TAS6417, TAS6417 (Zipalertinib)] ?
Found: 92

====

- ASSAYED SYSTEM: UniProt Q15303
- ASSAY REMARKS: Split TEV firefly luciferase assay, ERBB4
- Format: cell-based
- CONDITION CONTEXT: PC12 cells; constant EGF-like domain 10 ng/mL; luciferase readout
REPORTED METRIC: IC50
Don't forget the unit after the number, please.

COMPOUND	IC50
COc1cc2ncnc(Nc3cccc(Cl)c3)c2cc1OC [AG1478, AG-1478 (Tyrphostin AG-1478)]	258 nM

Consider the additional compound presented here.
Lookup: Query for UniProt Q15303: what IC50 does the record show for CCOc1cc2ncc(C#N)c(Nc3ccc(OCc4ccccn4)c(Cl)c3)c2cc1NC(=O)/C=C/[C@H]1CCCN1C [Pyrotinib] ?
Found: 324 nM

====

- System: HTR2A EGR1p
- ASSAY REMARKS: ERBBprofiler barcoded EGR1p pathway sensor, HTR2A co-transfected
- CONDITION CONTEXT: Rattus norvegicus, PC-12, 6 h, read-out: HTR2A EGR1p IC50
REPORTED METRIC: pIC50
pIC50 here: minus log base 10 of the concentration, concentration in moles per litre.

Observe how each entry below is paired with its result.
COMPOUND	pIC50
COc1cc2ncnc(Nc3cccc(Cl)c3)c2cc1OC	7.49
C=CC(=O)N[C@H]1C=C(C)c2c(-c3cnc4ccccc4c3)c3c(N)ncnc3n2C1 [TAS6417, TAS6417 (Zipalertinib)]	6.71

Consider the additional compound presented here.
Lookup: Reported pIC50, compound C=CC(=O)N1CCC(Oc2cc3c(Nc4ccc(Cl)c(Cl)c4F)ncnc3cc2OC)CC1 [Poziotinib, Poziotinib (HM781-36B)] : ____
Found: 8.94

====

- ASSAYED SYSTEM: phospho-ERBB4 (Homo sapiens, UniProt Q15303)
- Construct: T-47D cells, which endogenously express ERBB4
- Sequence (Q15303 26-1308): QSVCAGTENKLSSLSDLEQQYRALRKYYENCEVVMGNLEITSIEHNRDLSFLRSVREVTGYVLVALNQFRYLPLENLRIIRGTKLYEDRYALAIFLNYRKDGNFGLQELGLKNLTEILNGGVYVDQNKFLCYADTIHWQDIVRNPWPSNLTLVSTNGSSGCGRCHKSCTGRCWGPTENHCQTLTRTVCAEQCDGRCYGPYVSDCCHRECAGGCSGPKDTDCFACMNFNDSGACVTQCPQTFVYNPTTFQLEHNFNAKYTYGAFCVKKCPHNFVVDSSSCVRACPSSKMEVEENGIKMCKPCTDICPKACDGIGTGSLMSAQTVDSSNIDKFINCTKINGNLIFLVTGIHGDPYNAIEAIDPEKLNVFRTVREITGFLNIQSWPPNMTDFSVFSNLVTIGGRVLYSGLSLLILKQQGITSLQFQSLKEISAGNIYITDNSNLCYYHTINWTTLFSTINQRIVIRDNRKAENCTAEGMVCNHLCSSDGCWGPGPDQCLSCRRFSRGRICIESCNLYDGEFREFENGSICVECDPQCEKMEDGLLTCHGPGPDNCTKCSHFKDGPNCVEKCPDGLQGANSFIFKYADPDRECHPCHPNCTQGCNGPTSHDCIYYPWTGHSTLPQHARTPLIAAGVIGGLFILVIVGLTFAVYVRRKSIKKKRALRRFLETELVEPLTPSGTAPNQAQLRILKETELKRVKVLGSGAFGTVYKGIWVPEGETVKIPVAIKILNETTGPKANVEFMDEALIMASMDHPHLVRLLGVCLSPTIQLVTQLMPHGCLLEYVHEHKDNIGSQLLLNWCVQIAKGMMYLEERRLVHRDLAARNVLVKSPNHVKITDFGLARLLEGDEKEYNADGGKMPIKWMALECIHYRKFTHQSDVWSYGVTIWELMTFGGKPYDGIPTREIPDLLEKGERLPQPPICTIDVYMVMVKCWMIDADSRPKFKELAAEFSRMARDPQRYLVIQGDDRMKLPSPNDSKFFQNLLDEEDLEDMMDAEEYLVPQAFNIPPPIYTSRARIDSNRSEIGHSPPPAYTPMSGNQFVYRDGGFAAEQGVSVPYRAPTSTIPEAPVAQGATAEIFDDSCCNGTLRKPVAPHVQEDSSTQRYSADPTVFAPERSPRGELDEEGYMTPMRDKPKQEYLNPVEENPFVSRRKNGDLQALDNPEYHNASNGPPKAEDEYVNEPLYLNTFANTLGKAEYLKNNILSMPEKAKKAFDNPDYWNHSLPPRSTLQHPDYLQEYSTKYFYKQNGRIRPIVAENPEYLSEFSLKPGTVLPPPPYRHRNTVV
- ASSAY REMARKS: Western blot of p-ERBB4 in T-47D cells
- CONDITION CONTEXT: compound 1 h, EGFld 10 ng/mL 5 min, read-out: p-ERBB4 IC50, Western blot quantification
REPORTED METRIC: pIC50
pIC50 here: minus log base 10 of the concentration, concentration in moles per litre.

COc1cc2ncnc(Nc3cccc(Cl)c3)c2cc1OC 7.00

Consider the additional compound presented here.
Lookup: Reported pIC50, compound "CCOc1cc2ncc(C#N)c(Nc3ccc(OCc4ccccn4)c(Cl)c3)c2cc1NC(=O)/C=C/[C@H]1CCCN1C" : ____
Found: 6.46

====

- System: EGFR EGR1p
- ASSAY REMARKS: ERBBprofiler barcoded EGR1p pathway sensor, EGFR co-transfected
- CONDITION CONTEXT: Rattus norvegicus, PC-12, 6 h, read-out: EGFR EGR1p IC50
# IC50 values compiled below
Express it in nM; write the number only.

Observe how each entry below is paired with its result.
COMPOUND	IC50 [nM]
CCOc1cc2ncc(C#N)c(Nc3ccc(OCc4ccccn4)c(Cl)c3)c2cc1NC(=O)/C=C/[C@H]1CCCN1C	261
C=CC(=O)Nc1cc(Nc2nccc(-c3cn(C)c4ccccc34)n2)c(OC)cc1N(C)CCN(C)C	80
COc1cc2ncnc(Nc3cccc(Cl)c3)c2cc1OC	23
C=CC(=O)N[C@H]1C=C(C)c2c(-c3cnc4ccccc4c3)c3c(N)ncnc3n2C1 [TAS6417, TAS6417 (Zipalertinib)]	95
CS(=O)(=O)CCNCc1ccc(-c2ccc3ncnc(Nc4ccc(OCc5cccc(F)c5)c(Cl)c4)c3c2)o1 [Lapatinib, Lapatinib (GW-572016) Ditosylate]	244

Consider the additional compound presented here.
Lookup: Reported IC50, compound C=CC(=O)N1CCC(Oc2cc3c(Nc4ccc(Cl)c(Cl)c4F)ncnc3cc2OC)CC1 [Poziotinib, Poziotinib (HM781-36B)] : ____
Found: 0.89
